- study_system: Replicase polyprotein 1ab (Severe acute respiratory syndrome coronavirus 2, UniProt P0DTD1)
attribute_measured: pKi
Scale for pKi: -log10 of concentration given in mol/L; no unit attached.

As a guide, the following entries are already answered.
{"compound": "COc1ccc(OCC(=O)N2C[C@H]3[C@@H](C2C(=O)N[C@H](C=O)C[C@@H]2CCNC2=O)C3(C)C)cc1OC (stereo not given in full)", "test_result": 7.92}
{"compound": "COc1ccc(CCC(=O)N2C[C@@H]3CCC[C@H]3C2C(=O)N[C@H](C=O)C[C@@H]2CCNC2=O)c(Cl)c1 (stereo not given in full)", "test_result": 7.25}
{"compound": "COc1ccc(CCC(=O)N2C[C@@H]3CCC[C@H]3C2C(=O)N[C@H](C=O)C[C@@H]2CCNC2=O)cc1 (stereo not given in full)", "test_result": 7.29}
{"compound": "CC(C)(OCc1ccc(F)cc1F)C(=O)N1C[C@@H]2CCC[C@H]2C1C(=O)N[C@H](C=O)C[C@@H]1CCNC1=O (stereo not given in full)", "test_result": 7.40}
{"compound": "CC1(C)[C@@H]2C(C(=O)N[C@H](C=O)C[C@@H]3CCNC3=O)N(C(=O)COc3ccc4c(c3)OCO4)C[C@@H]21 (stereo not given in full)", "test_result": 7.14}
{"compound": "CC(Oc1ccc(Cl)cc1Cl)C(=O)N1C[C@@H]2CCC[C@H]2C1C(=O)N[C@H](C=O)C[C@@H]1CCNC1=O (stereo not given in full)", "test_result": 6.97}

pKi reading for CC1CNC(=O)[C@@H]1C[C@H](NC(=O)C1[C@@H]2[C@H](CN1C(=O)COc1cccc(-c3ccc(Cl)cc3)c1)C2(C)C)C(=O)CF (stereo not given in full) : 7.77

pKi reading for CC1CNC(=O)[C@@H]1C[C@@H](C=O)NC(=O)C1[C@@H]2CCC[C@H]2CN1C(=O)COc1ccc(Cl)cc1Cl (stereo not given in full) : 7.77

pKi reading for CC1CNC(=O)[C@@H]1C[C@H](NC(=O)C1[C@@H]2[C@H](CN1C(=O)COc1ccc(Cl)c(Cl)c1)C2(C)C)C(=O)CF (stereo not given in full) : 7.82

pKi reading for O=C[C@H](C[C@@H]1CCNC1=O)NC(=O)C1[C@@H]2CCC[C@H]2CN1C(=O)CCc1cc(Cl)cc(Cl)c1 (stereo not given in full) : 7.48

pKi reading for CC(C)(CCc1ccc(Cl)c(F)c1)C(=O)N1C[C@@H]2CCC[C@H]2C1C(=O)N[C@H](C=O)C[C@@H]1CCNC1=O (stereo not given in full) : 7.59

###

The reader will find reported Ki values listed item by item below.
- study_system: Replicase polyprotein 1ab (Severe acute respiratory syndrome coronavirus 2)
- method_description: SARS-CoV-2 Coronavirus 3C Protease FRET Assay
Provide only the numeric value, understood in nM.

As a guide, the following entries are already answered.
{"compound": "CC1(C)[C@@H]2C(C(=O)N[C@H](C=O)C[C@@H]3CCNC3=O)N(C(=O)COc3ccc(Cl)cc3)C[C@@H]21 (stereo partly drawn)", "readout_unit": "nM", "Ki": 9}
{"compound": "CCC[C@@H](NC(=O)C1C2[C@H](CN1C(=O)[C@@H](c1ccccc1)C(C)C)C2(C)C)C(=O)C(=O)NC1CC1 (stereo partly drawn)", "readout_unit": "nM", "Ki": 82700}

Below: the item to evaluate.
Field Ki (Replicase polyprotein 1ab (Severe acute respiratory syndrome coronavirus 2)), entry O=C[C@H](C[C@@H]1CCNC1=O)NC(=O)C1[C@@H]2CCC[C@H]2CN1C(=O)CCc1ccc(Cl)c(Cl)c1 (stereo partly drawn) : 35

###

log10(Ki), Replicase polyprotein 1ab (Severe acute respiratory syndrome coronavirus 2): measured values
// do not treat as linear: log10 of Ki, unit nM

As a guide, the following entries are already answered.
{"compound": "CC1CNC(=O)[C@@H]1C[C@@H](C=O)NC(=O)C1[C@@H]2[C@H](CN1C(=O)COc1ccc(Cl)c(Cl)c1)C2(C)C (stereo partly drawn) [WO2022021841, 48]", "test_result": 1.04}
{"compound": "CC1(C)[C@@H]2C(C(=O)N[C@H](C=O)C[C@@H]3CCNC3=O)N(C(=O)COc3ccc(F)c(F)c3)C[C@@H]21 (stereo partly drawn) [WO2022021841, 33]", "test_result": 1.11}
{"compound": "O=C[C@H](C[C@@H]1CCNC1=O)NC(=O)C1[C@@H]2CCC[C@H]2CN1C(=O)C(F)Oc1ccc(Cl)cc1Cl (stereo partly drawn) [WO2022021841, 72]", "test_result": 1.49}
{"compound": "O=C(NC1CC1)C(=O)[C@H](C[C@@H]1CCNC1=O)NC(=O)C1[C@@H]2CCC[C@H]2CN1C(=O)COc1ccc(Cl)cc1Cl (stereo partly drawn) [WO2022021841, 52]", "test_result": 2.94}
{"compound": "COc1ccc(OCC(=O)N2C[C@@H]3CCC[C@@H]3C2C(=O)N[C@H](C=O)C[C@@H]2CCNC2=O)cc1 (stereo partly drawn) [WO2022021841, 17]", "test_result": 1.30}

log10(Ki) reading for C[C@H](OCc1ccccc1)C(=O)N1C[C@@H]2CCC[C@@H]2C1C(=O)N[C@H](C=O)C[C@@H]1CCNC1=O (stereo partly drawn) [WO2022021841, 18] : 1.45

log10(Ki) reading for O=C[C@H](C[C@@H]1CCNC1=O)NC(=O)C1[C@@H]2CCC[C@H]2CN1C(=O)COc1ccc(Cl)c(Cl)c1 (stereo partly drawn) [WO2022021841, 45] : 1.28

log10(Ki) reading for O=C[C@H](C[C@@H]1CCNC1=O)NC(=O)C1[C@@H]2CCC[C@H]2CN1C(=O)CCc1ccc(F)c(F)c1 (stereo partly drawn) [WO2022021841, 25] : 1.20

###

log10 Ki, UniProt P0DTD1: measured values
// do not treat as linear: log10 of Ki, unit nM

As a guide, the following entries are already answered.
{"molecule": "COc1cccc(OCC(=O)N2C[C@H]3[C@@H](C2C(=O)N[C@H](C=O)C[C@@H]2CCNC2=O)C3(C)C)c1 (stereo partly drawn) [WO2022021841, 23]", "log10 Ki": 1.57}
{"molecule": "CC1(C)CNC(=O)[C@@H]1C[C@@H](C=O)NC(=O)C1[C@H]2[C@H](CN1C(=O)COc1ccc(Cl)cc1Cl)C2(C)C (stereo partly drawn) [WO2022021841, 55]", "log10 Ki": 1.49}
{"molecule": "CC1CNC(=O)[C@@H]1C[C@H](NC(=O)C1[C@H]2CCC[C@H]2CN1C(=O)COc1ccc(Cl)cc1Cl)C(=O)CF (stereo partly drawn) [WO2022021841, 4]", "log10 Ki": 1.08}
{"molecule": "CC1(C)[C@@H]2C(C(=O)N[C@H](C=O)C[C@@H]3CCNC3=O)N(C(=O)COc3cc(F)cc(F)c3)C[C@@H]21 (stereo partly drawn) [WO2022021841, 34]", "log10 Ki": 1.30}

Below: the item to evaluate.
log10 Ki reading for COc1cc(OCC(=O)N2C[C@H]3[C@@H](C2C(=O)N[C@H](C=O)C[C@@H]2CCNC2=O)C3(C)C)cc(OC)c1OC (stereo partly drawn) [WO2022021841, 35] : 1.71

###

- study_system: Replicase polyprotein 1ab (Severe acute respiratory syndrome coronavirus 2, UniProt P0DTD1)
attribute_measured: pKi
Scale for pKi: -log10 of concentration given in mol/L; no unit attached.

{"molecule": "O=C[C@H](C[C@@H]1CCNC1=O)NC(=O)C1[C@@H]2CCC[C@H]2CN1C(=O)C(F)(F)Oc1ccc(Cl)cc1Cl (stereo partly drawn)", "attribute_measured": "pKi", "test_result": 7.40}
{"molecule": "CCC[C@@H](NC(=O)C1[C@@H]2CCC[C@H]2CN1C(=O)[C@@H](c1ccccc1)C(C)C)C(=O)C(=O)NC1CC1 (stereo partly drawn)", "attribute_measured": "pKi", "test_result": 4.77}

Below: the item to evaluate.
pKi reading for CC1(C)[C@@H]2C(C(=O)N[C@H](C=O)Cc3ccccc3)N(C(=O)c3ccc4ccccc4c3)C[C@@H]21 (stereo partly drawn) : 6.23

###

The reader will find reported pKi values listed item by item below.
- study_system: Replicase polyprotein 1ab (Severe acute respiratory syndrome coronavirus 2, UniProt P0DTD1)
Scale for pKi: -log10 of concentration given in mol/L; no unit attached.

{"molecule": "CC1(C)[C@@H]2C(C(=O)N[C@H](C=O)C[C@@H]3CCNC3=O)N(C(=O)COc3ccc4ccccc4c3)C[C@@H]21 (stereo partly drawn) [WO2022021841, 27]", "attribute_measured": "pKi", "test_result": 7.27}
{"molecule": "O=C(N[C@@H](C[C@@H]1CCNC1=O)C(=O)CF)C1[C@H]2CCC[C@H]2CN1C(=O)COc1ccc(Cl)cc1Cl (stereo partly drawn) [WO2022021841, 3]", "attribute_measured": "pKi", "test_result": 7.74}
{"molecule": "O=C[C@H](C[C@@H]1CCNC1=O)NC(=O)C1[C@@H]2CCC[C@H]2CN1C(=O)CCc1ccc(O)cc1 (stereo partly drawn) [WO2022021841, 74]", "attribute_measured": "pKi", "test_result": 7.29}
{"molecule": "COC(=O)C[C@H](NC(=O)[C@@H]1CCCN1C(=O)c1cc2ccccc2[nH]1)C(=O)CF [WO2022021841, 1]", "attribute_measured": "pKi", "test_result": 5.96}
{"molecule": "COc1ccc(OC(C)C(=O)N2C[C@@H]3CCC[C@H]3C2C(=O)N[C@H](C=O)C[C@@H]2CCNC2=O)cc1 (stereo partly drawn) [WO2022021841, 29]", "attribute_measured": "pKi", "test_result": 7.11}

pKi reading for Cc1cc(Cl)ccc1OCC(=O)N1C[C@@H]2CCC[C@H]2C1C(=O)N[C@H](C=O)C[C@@H]1CCNC1=O (stereo partly drawn) [WO2022021841, 24] : 7.66

pKi reading for O=C[C@H](C[C@@H]1CCNC1=O)NC(=O)C1[C@H]2CCC[C@H]2CN1C(=O)CCc1cc(F)cc(F)c1 (stereo partly drawn) [WO2022021841, 19] : 7.96

pKi reading for CC1CNC(=O)[C@@H]1C[C@@H](C=O)NC(=O)C1[C@@H]2CCC[C@H]2CN1C(=O)COc1cccc(-c2ccccc2)c1 (stereo partly drawn) [WO2022021841, 47] : 7.92

pKi reading for O=C(NCc1ccccn1)C(=O)[C@H](C[C@@H]1CCNC1=O)NC(=O)C1[C@@H]2CCC[C@H]2CN1C(=O)COc1ccc(Cl)cc1Cl (stereo partly drawn) [WO2022021841, 53] : 4.20

pKi reading for CC1CNC(=O)[C@@H]1C[C@H](NC(=O)C1[C@H]2[C@H](CN1C(=O)COc1ccc(OC(F)(F)F)cc1)C2(C)C)C(=O)CF (stereo partly drawn) [WO2022021841, 79] : 7.19

Reference for the values: BindingDB's records for patent WO2022021841
